Consider the following pIC50 values measured on Cytochrome P450 1A2 (Homo sapiens, UniProt P05177).
Sequence (P05177 whole entry): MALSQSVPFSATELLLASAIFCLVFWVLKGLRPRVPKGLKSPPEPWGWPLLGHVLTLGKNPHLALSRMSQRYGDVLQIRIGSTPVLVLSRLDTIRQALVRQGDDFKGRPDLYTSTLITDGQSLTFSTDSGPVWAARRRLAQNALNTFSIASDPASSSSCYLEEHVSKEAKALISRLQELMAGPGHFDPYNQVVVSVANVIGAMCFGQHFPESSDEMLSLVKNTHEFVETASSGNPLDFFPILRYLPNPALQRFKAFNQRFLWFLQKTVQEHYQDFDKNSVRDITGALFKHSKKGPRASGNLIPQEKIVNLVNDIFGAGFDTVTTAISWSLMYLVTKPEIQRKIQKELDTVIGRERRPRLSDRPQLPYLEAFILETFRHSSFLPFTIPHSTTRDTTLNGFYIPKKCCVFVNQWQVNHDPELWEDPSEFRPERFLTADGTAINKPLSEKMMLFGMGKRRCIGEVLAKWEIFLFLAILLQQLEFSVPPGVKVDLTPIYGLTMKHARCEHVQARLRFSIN
pIC50: −log10 of the molar value.
MEASURED_QUANTITY: pIC50

CC(C)(N)C(=O)N1CCn2c(nc(-c3ccc(F)cc3)c2Nc2ccc(F)cc2)C1 | < 5.05
CC(C)(N)C(=O)N1CCn2c(nc(-c3ccc(F)cc3)c2Nc2ccc(F)c(F)c2)C1 | < 5.05

* * *

Entries and their measured CC50 follow.
ASSAY_COMMENT: Cytotoxicity against human HuH7 cells
Assay type: cell-based
STATED_CONDITIONS: Huh-7 cells, read-out: TC50 (the source's name)
MEASURED_QUANTITY: CC50

CC(C)CC(N)C(=O)N1CCn2c(nc(-c3ccccc3)c2Nc2ccc3c(c2)OCO3)C1 (racemic) | > 10 µM
CC(C)(N)C(=O)N1CCn2c(nc(-c3ccc(F)cc3)c2Nc2ccc(F)cc2)C1 | > 12 µM
NCC(=O)N1CCn2c(nc(-c3ccccc3)c2Nc2ccc3c(c2)OCO3)C1 | > 10 µM
NC(Cc1ccccc1)C(=O)N1CCn2c(nc(-c3ccccc3)c2Nc2ccc3c(c2)OCO3)C1 (racemic) | > 10 µM
CC(C)(N)C(=O)N1CCn2c(nc(-c3ccc(F)cc3)c2Nc2ccc(F)c(F)c2)C1 | > 12 µM

* * *

ASSAY_COMMENT: Cytotoxicity against human Hep2 cells
Type: cell-based
STATED_CONDITIONS: HEp-2 cells, read-out: TC50 (the source's name)
MEASURED_QUANTITY: CC50

CC(C)(N)C(=O)N1CCn2c(nc(-c3ccc(F)cc3)c2Nc2ccc(F)cc2)C1 | > 12 µM
CC(C)(N)C(=O)N1CCn2c(nc(-c3ccc(F)cc3)c2Nc2ccc(F)c(F)c2)C1 | > 12 µM

* * *

ASSAY_COMMENT: in vitro
STATED_CONDITIONS: human, Caco-2
Description: Apparent permeability from apical to basolateral side in human Caco2 cells by LC/MS analysis
In this section, each of the compounds is paired with its reported Papp A→B.
MEASURED_QUANTITY: Papp A→B (×10⁻⁶ cm/s)

CC(C)(N)C(=O)N1CCn2c(nc(-c3ccc(F)cc3)c2Nc2ccc(F)cc2)C1 | 3.05
NCC(=O)N1CCn2c(nc(-c3ccc(F)cc3)c2Nc2ccc(F)cc2)C1 | 0.7
NCC(=O)N1CCn2c(nc(-c3ccc(F)cc3)c2Nc2ccc(Cl)cc2)C1 | 0.44
CC(C)(N)C(=O)N1CCn2c(nc(-c3ccc(F)cc3)c2Nc2ccc(Cl)cc2)C1 | 1.46
NCC(=O)N1CCn2c(nc(-c3ccc(F)cc3)c2Nc2ccc(F)c(F)c2)C1 | 0.99
CC(C)(N)C(=O)N1CCn2c(nc(-c3ccc(F)cc3)c2Nc2ccc(Cl)c(F)c2)C1 | 0.84
NCC(=O)N1CCn2c(nc(-c3cccc(F)c3)c2Nc2ccc(F)cc2)C1 | 0.56
CC(C)(N)C(=O)N1CCn2c(nc(-c3ccc(F)cc3)c2Nc2ccc(F)c(F)c2)C1 | 0.14

* * *

ASSAY_COMMENT: Ratio of drug level in blood to plasma of female CD1 mouse
Assay type: ADME
STATED_CONDITIONS: blood and plasma
MEASURED_QUANTITY: blood plasma ratio

CC(C)(N)C(=O)N1CCn2c(nc(-c3ccc(F)cc3)c2Nc2ccc(F)c(F)c2)C1 | > 1
